# STUDY_TARGET: WDR5^22-334 (human, UniProt P61964 22-334)
# PROTOCOL: ITC
READOUT_LABEL: Kd (µM)
Kindly provide the numeric value in µM only, without the unit symbol.

// Kd value for SSRRSSHYPAAVQSQAAAERGASATAKSRAISI [PTENα-NTE^116-148 peptide] : 3.8
